Entries and their Activity values follow.
target system: Neuronal acetylcholine receptor; alpha4/beta2 (Homo sapiens, UniProt P17787+P43681)
Sequence (P17787 whole entry): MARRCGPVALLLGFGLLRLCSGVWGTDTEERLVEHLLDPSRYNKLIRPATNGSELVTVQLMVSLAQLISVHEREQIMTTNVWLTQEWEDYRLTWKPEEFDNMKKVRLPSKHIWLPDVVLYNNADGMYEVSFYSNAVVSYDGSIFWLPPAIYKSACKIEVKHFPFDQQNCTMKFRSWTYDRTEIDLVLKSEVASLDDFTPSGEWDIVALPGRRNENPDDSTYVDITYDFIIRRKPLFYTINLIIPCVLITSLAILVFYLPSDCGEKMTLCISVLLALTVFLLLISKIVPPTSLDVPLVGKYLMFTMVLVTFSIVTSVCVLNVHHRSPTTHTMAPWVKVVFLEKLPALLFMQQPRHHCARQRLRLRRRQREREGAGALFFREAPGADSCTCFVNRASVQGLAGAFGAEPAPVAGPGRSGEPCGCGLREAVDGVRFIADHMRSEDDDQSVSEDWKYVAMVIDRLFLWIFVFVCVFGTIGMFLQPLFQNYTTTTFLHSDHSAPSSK
Sequence (P43681 whole entry): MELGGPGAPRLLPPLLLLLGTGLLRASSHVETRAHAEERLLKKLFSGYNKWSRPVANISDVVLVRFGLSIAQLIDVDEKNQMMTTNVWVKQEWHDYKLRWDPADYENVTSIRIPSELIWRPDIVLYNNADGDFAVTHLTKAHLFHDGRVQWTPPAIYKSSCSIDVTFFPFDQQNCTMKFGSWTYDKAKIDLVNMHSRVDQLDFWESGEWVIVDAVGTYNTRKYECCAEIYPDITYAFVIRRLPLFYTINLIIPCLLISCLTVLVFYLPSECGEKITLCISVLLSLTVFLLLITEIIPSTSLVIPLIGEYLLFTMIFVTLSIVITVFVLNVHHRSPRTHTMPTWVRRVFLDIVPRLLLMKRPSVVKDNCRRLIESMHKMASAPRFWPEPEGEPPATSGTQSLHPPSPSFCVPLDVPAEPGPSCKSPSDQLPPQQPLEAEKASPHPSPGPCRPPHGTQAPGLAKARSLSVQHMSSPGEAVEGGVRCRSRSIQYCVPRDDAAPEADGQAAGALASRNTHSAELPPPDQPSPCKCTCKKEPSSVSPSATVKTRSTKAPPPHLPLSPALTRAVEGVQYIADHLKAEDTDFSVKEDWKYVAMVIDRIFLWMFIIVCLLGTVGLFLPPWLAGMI
method summary: Maximal agonist activity on human alpha-4-beta-2 ACHR expressed in HEK293 cells assessed as change in intracellular calcium concentration by FLIPR relative to nicotine
Type: functional, cell-based
Numbers only; they are read as %.

                             structure                             target_system  numeric_result
0     Brc1cncc(N2CC[C@H]3CN[C@H]3C2)c1  Neuronal acetylcholine receptor; alpha4/beta2 (Homo sapiens, UniProt P17787+P43681)             148
1  CCOc1cncc(N2CC[C@@H]3CN[C@@H]3C2)c1  Neuronal acetylcholine receptor; alpha4/beta2 (Homo sapiens, UniProt P17787+P43681)              18
2     Clc1ccc(N2C[C@H]3CCNC[C@H]32)cn1  Neuronal acetylcholine receptor; alpha4/beta2 (Homo sapiens, UniProt P17787+P43681)             102

Next:
Would you mind telling me what Activity value was observed for "CCOc1cncc(N2CC[C@H]3CN[C@H]3C2)c1" ?
116

###

target system: Neuronal acetylcholine receptor; alpha4/beta2 (Homo sapiens, UniProt P17787+P43681)
method summary: Agonist activity at human alpha4beta2 ACHR expressed in HEK293 cells assessed as change in intracellular calcium concentration by FLIPR
As shown below, each of these molecules has a reported EC50 value.
Entry rule: numbers only, all in nM.

Solved entries:
>>> df
                               molecule  numeric_result
0      c1cncc(N2CC[C@@H]3CN[C@@H]3C2)c1             330
1      Clc1ccc(N2C[C@H]3CCNC[C@H]32)cn1             216
2     CCOc1cncc(N2CC[C@H]3CN[C@H]3C2)c1             620
3  Brc1cc(N2CC[C@@H]3CN[C@@H]3C2)cnc1Br              76
4  Clc1cc(N2C[C@@H]3CCNC[C@@H]32)cnc1Cl             271
5     Cc1cncc(N2CC[C@@H]3CN[C@@H]3C2)c1             650

Name the reported EC50 value associated with the molecule "Clc1cc(N2CC[C@H]3CN[C@H]3C2)cnc1Cl"
12

Which measured EC50 value corresponds to "Cc1cc(N2CC[C@H]3CN[C@H]3C2)cnc1Cl" ?
7.2

###

target system: Neuronal acetylcholine receptor; alpha3/beta4 (Homo sapiens, UniProt P30926+P32297)
Sequence (P30926 whole entry): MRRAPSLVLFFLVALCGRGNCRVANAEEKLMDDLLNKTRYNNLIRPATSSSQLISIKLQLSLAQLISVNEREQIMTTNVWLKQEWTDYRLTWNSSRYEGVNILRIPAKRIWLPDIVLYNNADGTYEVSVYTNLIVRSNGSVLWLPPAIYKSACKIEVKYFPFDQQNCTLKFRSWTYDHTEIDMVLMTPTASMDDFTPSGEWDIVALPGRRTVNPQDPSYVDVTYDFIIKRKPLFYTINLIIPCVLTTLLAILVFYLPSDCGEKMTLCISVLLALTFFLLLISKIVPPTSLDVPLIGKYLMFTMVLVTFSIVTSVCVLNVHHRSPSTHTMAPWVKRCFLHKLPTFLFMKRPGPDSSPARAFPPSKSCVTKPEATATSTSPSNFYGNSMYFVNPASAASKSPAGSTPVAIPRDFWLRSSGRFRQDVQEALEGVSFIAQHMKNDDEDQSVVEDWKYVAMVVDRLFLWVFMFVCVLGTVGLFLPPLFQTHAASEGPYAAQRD
Sequence (P32297 whole entry): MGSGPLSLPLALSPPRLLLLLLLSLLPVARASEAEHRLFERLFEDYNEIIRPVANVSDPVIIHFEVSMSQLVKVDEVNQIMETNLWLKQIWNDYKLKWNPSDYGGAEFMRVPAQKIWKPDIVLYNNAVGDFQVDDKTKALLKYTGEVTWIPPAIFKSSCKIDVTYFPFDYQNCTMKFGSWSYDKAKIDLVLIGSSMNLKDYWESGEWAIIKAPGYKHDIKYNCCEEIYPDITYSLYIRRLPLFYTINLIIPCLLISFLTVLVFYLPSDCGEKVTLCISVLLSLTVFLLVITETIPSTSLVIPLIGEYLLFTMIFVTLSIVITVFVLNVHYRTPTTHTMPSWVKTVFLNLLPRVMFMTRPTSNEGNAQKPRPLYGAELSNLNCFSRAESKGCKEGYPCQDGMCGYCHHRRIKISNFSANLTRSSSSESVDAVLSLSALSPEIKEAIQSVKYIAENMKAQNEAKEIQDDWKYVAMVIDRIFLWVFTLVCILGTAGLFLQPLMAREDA
method summary: Agonist activity at human alpha-3-beta-4 ACHR expressed in HEK293 cells assessed as change in intracellular calcium concentration by FLIPR
Reported EC50 values are given for each entry in this list.
Express the reported value numerically, then name its unit.

>>> print(df.to_string())
                             structure  result
0     COc1cncc(N2CC[C@H]3CN[C@H]3C2)c1  180 nM
1  Cc1cc(N2CC[C@@H]3CN[C@@H]3C2)cnc1Cl   71 nM

# lookup: EC50 of "O=[N+]([O-])c1ccc(N2CC[C@@H]3CN[C@@H]3C2)cn1"
830 nM

Can you look up the measured EC50 of "COc1cncc(N2C[C@@H]3CCNC[C@@H]32)c1" for me?
63500 nM

Quick check: EC50 of "Clc1ccc(N2C[C@@H]3CCNC[C@@H]32)cn1" ?
1390 nM

Please give the measured EC50 for this compound: "CCOc1cncc(N2CC[C@H]3CN[C@H]3C2)c1"
124 nM

Name the reported EC50 value associated with the compound "Clc1ccc(N2CC[C@H]3CN[C@H]3C2)cn1"
29 nM
